Provenance of the data: ChEMBL document CHEMBL1201862

# Test system: UO-31
# TEST: NCI tumour cell line growth inhibition, 48 h
Activity calls are given as the source filed them. No stated cut-off is given here; in the data, active = GI50 up to about 1.1 µM and inactive = higher.
Please reply with one of these outcomes: Y (active), N (inactive)

Check out these entries, answers already filled in.
Entry O=c1[nH]c(=O)n(COCCOCc2ccccc2)cc1Nc1ccccc1 : call = ?
N

What would you report for O=P1(Oc2ccc(Cl)cc2)OCCS1 (stereo not given) ?
N

Let us now turn to C#CCOCC12C=CC(O1)C1COC(=O)C12 (stereo not given)
N

Follow-up item: CC(=O)OC/C=C\Cn1nc(Br)c(=O)[nH]c1=O
N

Also check O=c1c(C(c2cnc3ccccc3c2)c2c(O)oc3ccccc3c2=O)c(O)oc2ccccc12
N

--- query ---
Assay result, entry CC1(C)CCCCCC(C)(CCCO)C1=O (stereo not given) — outcome?
N

###

# System: HL-60
# TEST: NCI tumour cell line growth inhibition, 48 h
Active and inactive are the calls of the source. No stated cut-off is given here; in the data, active = GI50 up to about 1.1 µM and inactive = higher.
Entry note: the call must match one of active, inactive

Consider the following illustrative entries.
What did the test return for COCCCCCC(=O)CP(=O)(OC)OC ?
inactive

Try the molecule CC1(C)CCCCCCCCCC2CC2CCC(C)(C)C1=O (configuration not stated)
inactive

New cases:
What call does the record list for CCOc1cc2c(C(=O)CC)c(O)ccc2o1 ?
inactive

Next molecule up: O=P1(Oc2ccc(Cl)cc2)OCCS1 (configuration not stated)
inactive

Okay, and CCN(CC)CCNc1ccc([N+](=O)[O-])c2nc3ccccc3c(N)c12 ?
active

Cool, now Cc1c(N)nc([C@H](CC(N)=O)NC[C@H](N)C(N)=O)nc1C(=O)N[C@H](C(=O)N[C@H](C)[C@@H](O)[C@H](C)C(=O)N[C@H](C(=O)NCCc1nc(-c2nc(C(=O)NCCC[S+](C)C)cs2)cs1)[C@@H](C)O)C(OC1OC(CO)C(O)C(O)C1OC1OC(CO)C(O)C(OC(N)=O)C1O)c1c[nH]cn1 (some centres not stated)
inactive

Same question for O=c1[nH]c(=O)c2c([nH]1)[nH]c1ccc(Br)cc12 please.
inactive

###

Answer each item with its documented GI50.
# Tested on: DU-145
# TEST: NCI tumour cell line growth inhibition, 48 h
Calls of active or inactive are those of the source. Rule as the data show it: active = GI50 up to about 1.1 µM and inactive = higher.

Recorded GI50 for N#Cc1c(NC(=S)Nc2ccc(Cl)cc2)sc2c1CCCC2 , please?
> 100 µM (inactive)

Okay, and CCCc1nc(Cl)c(Cl)c(Cl)n1 ?
35 µM (inactive)

Same question, COc1cc(C=C2N=C(c3ccccc3)N(n3c(-c4ccccc4)nc4ccccc4c3=O)C2=O)cc(OC)c1OC this time
27.6 µM (inactive)

Give GI50 for all compounds that follow.
1. O=C(/N=N/c1ccc(Cl)cc1Cl)NNc1ccc(Cl)cc1Cl
2. Cn1c(S)nc(C(N)=O)c1N
3. CC1(C)OCN(c2ccc(Cl)cc2)Cn2c1nc1ccccc12

1: 14.7 µM (inactive); 2: > 100 µM (inactive); 3: 6.85 µM (inactive)

Could you tell me GI50 for each of these compounds? They are listed below.
1. COc1cc2c(cc1O)[C@@H]1Cc3c(cc(OC)c(OC)c3Oc3cc4c(cc3OC)CCN(C)[C@@H]4Cc3ccc(O)cc3)[C@H](C2)N1C
2. Cc1cc(S(=O)(=O)Nc2nc(N)n(-c3ccccc3)n2)c(S)cc1Cl
3. CC[C@H](C)C1=C(OC(C)=O)[N@+]2([O-])Oc3ccc(-c4c(O)c(O)c(-c5ccc(OC(C)=O)cc5)c(OC(C)=O)c4OC(C)=O)cc3O[C@]2([C@@H](C)CC)C(=O)N1O

1: > 100 µM (inactive); 2: > 100 µM (inactive); 3: 44.5 µM (inactive)

Each of the following entries comes with a recorded value; kindly state GI50 for each.
1. N#Cc1c(O)cc(=O)n2c1[nH]c1ccccc12
2. CCOC(=O)N1CCN(c2c(C)nc(C)nc2O)CC1
3. O=[N+]([O-])C(=C/C1CCCCC1)/C(=C\C1CCCCC1)[N+](=O)[O-]
4. COc1cc(C2c3cc4c(cc3OC(NN=C(C)C)C2C)OCO4)cc(OC)c1O (stereo not given)
5. COc1ccc(/C=N/c2nc3cc4sc(/N=C/c5ccc(OC)cc5)nc4cc3s2)cc1

["> 100 µM (inactive)", "> 100 µM (inactive)", "13.3 µM (inactive)", "24.1 µM (inactive)", "> 23.7 µM (inactive)"]

Give GI50 for each listed item.
1. NC(=O)/C(=C\c1ccncc1)c1cccc2ccccc12
2. C=CCC(CNC(=O)OCc1ccccc1)O[Si](C)(C)C(C)(C)C (stereo not given)
3. O=C(O)CNc1ccc(C(=O)O)cc1

["67.8 µM (inactive)", "36.5 µM (inactive)", "> 100 µM (inactive)"]
